This collection of values is drawn from paper PMC8162347.

Each entry below carries its reported Critical Gelation Concentration (cgc).
test: Gelation study, pH trigger with GdL, vial inversion test; type: physicochemical; conditions: vial inversion test; water, NaOH (1 M) to circa pH 10, then GDL 0.4 wt %, overnight at room temperature
Give the value, in units of mM, as a plain number.

Sample answers from the record:
{"columns": ["compound", "value-unit", "Critical Gelation Concentration (cgc)"],
 "data": [
  ["O=C(O)/C(=C/c1ccccc1)NC(=O)[C@H](Cc1ccccc1)NC(=O)c1ccc(C(=O)N[C@@H](Cc2ccccc2)C(=O)N/C(=C\\c2ccccc2)C(=O)O)cc1 [Compound 1]", "mM", 4.0],
  ["O=C(O)/C(=C/c1ccccc1)NC(=O)[C@H](Cc1ccc(O)cc1)NC(=O)c1ccc(C(=O)N[C@@H](Cc2ccc(O)cc2)C(=O)N/C(=C\\c2ccccc2)C(=O)O)cc1 [Compound 2]", "mM", 5.1]
]}

In the following, a different compound is considered.
Query string: Return reported Critical Gelation Concentration (cgc). Input compound: O=C(O)/C(=C/c1ccccc1)NC(=O)[C@H](Cc1ccccc1)NC(=O)c1ccc2cc(C(=O)N[C@@H](Cc3ccccc3)C(=O)N/C(=C\c3ccccc3)C(=O)O)ccc2c1 [Compound 3]
Result string: 3.7

* * *

# Critical Gelation Concentration (cgc) values compiled below
assay: Gelation study, pH trigger with GdL, vial inversion test; assay type: physicochemical; conditions: vial inversion test; water, NaOH (1 M) to circa pH 10, then GDL 0.4 wt %, standing overnight at room temperature (20–25 °C)
Numeric only. Scale: wt %

Reference set (2 entries):
{"columns": ["compound", "measure-name", "value-observed"],
 "data": [
  ["O=C(O)/C(=C/c1ccccc1)NC(=O)[C@H](Cc1ccc(O)cc1)NC(=O)c1ccc(C(=O)N[C@@H](Cc2ccc(O)cc2)C(=O)N/C(=C\\c2ccccc2)C(=O)O)cc1 [Compound 2]", "Critical Gelation Concentration (cgc)", 0.4],
  ["O=C(O)/C(=C/c1ccccc1)NC(=O)[C@H](Cc1ccccc1)NC(=O)c1ccc2cc(C(=O)N[C@@H](Cc3ccccc3)C(=O)N/C(=C\\c3ccccc3)C(=O)O)ccc2c1 [Compound 3]", "Critical Gelation Concentration (cgc)", 0.3]
]}

Next, consider the following compound.
Query string: Annotate the compound O=C(O)/C(=C/c1ccccc1)NC(=O)[C@H](Cc1ccccc1)NC(=O)c1ccc(C(=O)N[C@@H](Cc2ccccc2)C(=O)N/C(=C\c2ccccc2)C(=O)O)cc1 [Compound 1] with its measured Critical Gelation Concentration (cgc).
Result string: 0.3
